These data points were gathered from PubChem BioAssay.

# PROTOCOL DESCRIPTION: RAM pathway blockade in budding yeast – dse1pr::URA3 reporter, 5-FOA selection, pilot screen (AID 869);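 note: RAM network block rescues cells from 5-FOA so hits raise OD615 growth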
# DETAILS: S. cerevisiae dse1pr::URA3 5-FOA growth, OD615, 2 d; at 10 µM; hits give high values; strain carries analog-sensitive mutant Cbk1 kinase
Note: every record was labeled by where its inhibition sits among low class = under 0.8%, middle class = from 0.8% up to 2%, high class = 2% and over

| COMPOUND | LABEL VALUE |
| --- | --- |
| CCOCCOc1nc2c(c(=O)n(C)c(=O)n2C)n1Cc1ccc(C)cc1 | high class |
| COc1ccc(C2CC(c3cccc(C)c3)n3ncnc3N2)cc1 (stereo unspecified) | low class |
| Cc1ccc2c(c1)c(C)c(C)n2CC(O)CN1CCCCC1C (stereo unspecified) | middle class |
| CC(=O)c1cc2c(cc1NC(=O)CN1CCN(C(=O)c3ccco3)CC1)OCO2 | high class |
| CCOC(=O)c1c(C)n(C)c2c(C)cc(O)c(OC(C)=O)c12 | middle class |
| O=C(CN1CCOc2ccccc21)NCc1ccccc1 | low class |
| O=c1c2ccccc2nc(SCc2nc(-c3ccccc3)no2)n1-c1ccc(F)cc1 | middle class |
| COC(=O)C(C)Sc1nnc2n(-c3cccc(C)c3)c(=O)c3c4c(sc3n12)CCCC4 (stereo unspecified) | low class |
| COC(=O)c1c(NC(=O)c2nc3ccccc3s2)sc2c1CCN(C(C)=O)C2 | high class |
